System: ATP;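 note: ATP exposure 15 min at 22 °C before imaging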
Assay: switch fluorescence ratio, 500 uM ATP over buffer (Cy3 cluster intensity, sum of 5 cycles each) (fold (ratio)); higher = stronger signal-on switching upon ATP binding; sequences stand for … in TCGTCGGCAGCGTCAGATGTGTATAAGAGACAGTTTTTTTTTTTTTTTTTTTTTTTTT…TC
Settings: aptamer strand: ATP DNA aptamer (quencher-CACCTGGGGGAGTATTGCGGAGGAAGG + anchor), 100 nM annealed; ATP concentration: 500 uM
measure.name: switch fluorescence ratio

sequence.input	switch fluorescence ratio
TAATTTGATG	0.979
AAAGGGGGGT	0.989
GGGGTAGATG	0.998
TATCATATTA	1
GACTATTATG	1

Which switch fluorescence ratio is listed for CGTTGTGGCA ?
1

And GATATCCATG ?
0.972

====

Listed here are sequences together with their documented switch fluorescence ratio.
Test system: ATP;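 note: ATP exposure 15 min at 22 °C before imaging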
Assay: switch fluorescence ratio, 500 uM ATP over buffer (Cy3 cluster intensity, sum of 5 cycles each) (fold (ratio)); higher = stronger signal-on switching upon ATP binding; sequences stand for … in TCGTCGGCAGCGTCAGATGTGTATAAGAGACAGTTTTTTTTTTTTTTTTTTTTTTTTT…TC
Settings: aptamer strand: ATP DNA aptamer (quencher-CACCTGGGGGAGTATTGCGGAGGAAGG + anchor), 100 nM annealed; ATP concentration: 500 uM
Simply state the number, no unit and no words.

sequence.input	switch fluorescence ratio
AGTTCAGGGC	1
GGGGTCGATG	0.985
CCGGTCTACA	1.05

Which switch fluorescence ratio is listed for GAGGCAGTTA ?
1.11

And TGGGTAACGG ?
0.999

And CGGATCGGGG ?
1.17

And CCCTGATCTG ?
1.02

And GGCGGGGGCC ?
0.969

And GAACTTTTTT ?
0.993

And GGGCGTGGTT ?
0.965

====

Test system: ATP;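 note: ATP exposure 15 min at 22 °C before imaging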
Test: switch fluorescence ratio, 500 uM ATP over buffer (Cy3 cluster intensity, sum of 5 cycles each) (fold (ratio)); higher = stronger signal-on switching upon ATP binding; sequences stand for … in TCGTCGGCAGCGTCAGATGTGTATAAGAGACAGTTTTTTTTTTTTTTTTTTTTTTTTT…TC
Conditions: aptamer strand: ATP DNA aptamer (quencher-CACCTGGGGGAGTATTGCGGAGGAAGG + anchor), 100 nM annealed; ATP concentration: 500 uM
measure.name: switch fluorescence ratio
Simply state the number, no unit and no words.

Examples with their reported switch fluorescence ratio follow.
sequence.input	obs.value
TTTTTGTGGC	0.985
CTCGGGGATG	0.976
TCAGCCTAGG	1.02

Which switch fluorescence ratio is listed for CCGGTGTAGA ?
1.01

And TCTTAATGTA ?
0.985

And TAATCTAGGG ?
0.985

And AAAAGGAGAC ?
1.01

And ATATTTTCAG ?
0.994

And GGTTTCCAAT ?
1

And AGCAGAAATG ?
0.998

And TTATTAATT ?
0.997

And CAGTGATCTT ?
0.975

And GATTTAAGAG ?
0.988

And GCATTCGATG ?
0.981

And TATAGCTTTT ?
0.987

And TTTTTTAAAT ?
0.987

And GGCGTGGGGA ?
1.02

And TTGAGCTAGA ?
0.971

====

Listed here are sequences together with their documented switch fluorescence ratio.
System: ATP;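 note: ATP exposure 15 min at 22 °C before imaging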
Test: switch fluorescence ratio, 500 uM ATP over buffer (Cy3 cluster intensity, sum of 5 cycles each) (fold (ratio)); higher = stronger signal-on switching upon ATP binding; sequences stand for … in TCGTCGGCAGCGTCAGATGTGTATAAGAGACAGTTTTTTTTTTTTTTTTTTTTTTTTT…TC
Details: aptamer strand: ATP DNA aptamer (quencher-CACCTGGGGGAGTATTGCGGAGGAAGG + anchor), 100 nM annealed; ATP concentration: 500 uM
Simply state the number, no unit and no words.

Examples with their reported switch fluorescence ratio follow.
sequence.input	switch fluorescence ratio
TTAAACTCGG	0.998
TATTGAGAGT	0.991
TGAGTGCCTA	0.973

Now for another entry.
Which switch fluorescence ratio is listed for TGGTCTTAGA ?
1.01

====

Listed here are sequences together with their documented switch fluorescence ratio.
Tested on: ATP;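 note: ATP exposure 15 min at 22 °C before imaging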
Assay: switch fluorescence ratio, 500 uM ATP over buffer (Cy3 cluster intensity, sum of 5 cycles each) (fold (ratio)); higher = stronger signal-on switching upon ATP binding; sequences stand for … in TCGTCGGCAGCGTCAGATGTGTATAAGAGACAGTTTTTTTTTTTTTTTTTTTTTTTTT…TC
Details: aptamer strand: ATP DNA aptamer (quencher-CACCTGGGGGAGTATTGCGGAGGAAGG + anchor), 100 nM annealed; ATP concentration: 500 uM
Simply state the number, no unit and no words.

Examples with their reported switch fluorescence ratio follow.
sequence.input	test.target	switch fluorescence ratio
ATGGGGATTA	ATP	0.996
CCGTTGTTCG	ATP	1.02
GGTTATCTTG	ATP	1.01
CTAGTTTGAG	ATP	1.01
TAATAGAATT	ATP	1

// lookup switch fluorescence ratio | system=ATP | key= ATAAATTAGT;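 note: ATP exposure 15 min at 22 °C before imaging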
0.998

And ATCTGCATGA ?
1.01

And GAGGGAAGAG ?
1.01

And GCGTCGGTGT ?
0.98

And AAAAGTTTGC ?
1.02

And ATCAACGGCA ?
1.07

And GGGGGGAGGT ?
1.02

And CGTTAGTTTT ?
0.992

And AGACGTCACT ?
1.77

And TATGGGGGTC ?
1.02

And AGGATTAACA ?
1.05

====

Tested on: ATP;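 note: ATP exposure 15 min at 22 °C before imaging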
Test: switch fluorescence ratio, 500 uM ATP over buffer (Cy3 cluster intensity, sum of 5 cycles each) (fold (ratio)); higher = stronger signal-on switching upon ATP binding; sequences stand for … in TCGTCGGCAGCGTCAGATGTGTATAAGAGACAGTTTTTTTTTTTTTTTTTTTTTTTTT…TC
Conditions: aptamer strand: ATP DNA aptamer (quencher-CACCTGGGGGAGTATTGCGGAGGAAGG + anchor), 100 nM annealed; ATP concentration: 500 uM
measure.name: switch fluorescence ratio
Simply state the number, no unit and no words.

sequence.input	switch fluorescence ratio
CGCCAGCATA	2.82
TCGTGTTTTC	1.03
CATGATTTAT	1
GCGATTAAAG	1
TTTTCTGTTA	1.03
CATGGATTAA	1

// lookup switch fluorescence ratio | system=ATP | key= AAAAGGCATA;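 note: ATP exposure 15 min at 22 °C before imaging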
1.03

And CGGGTTTCAC ?
1

====

Listed here are sequences together with their documented switch fluorescence ratio.
Tested on: ATP;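 note: ATP exposure 15 min at 22 °C before imaging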
Assay: switch fluorescence ratio, 500 uM ATP over buffer (Cy3 cluster intensity, sum of 5 cycles each) (fold (ratio)); higher = stronger signal-on switching upon ATP binding; sequences stand for … in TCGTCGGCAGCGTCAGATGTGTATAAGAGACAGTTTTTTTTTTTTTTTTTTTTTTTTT…TC
Conditions: aptamer strand: ATP DNA aptamer (quencher-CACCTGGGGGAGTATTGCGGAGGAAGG + anchor), 100 nM annealed; ATP concentration: 500 uM
Simply state the number, no unit and no words.

sequence.input	switch fluorescence ratio
GTCATAGATT	0.989
GTATGAGTAG	0.992
GAACGTCCAG	0.99
TTGAAGTTAT	0.99
GAAAAAGTGG	0.998

Which switch fluorescence ratio is listed for CATGTAAGGA ?
0.985

====

Tested on: ATP;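 note: ATP exposure 15 min at 22 °C before imaging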
Test: switch fluorescence ratio, 500 uM ATP over buffer (Cy3 cluster intensity, sum of 5 cycles each) (fold (ratio)); higher = stronger signal-on switching upon ATP binding; sequences stand for … in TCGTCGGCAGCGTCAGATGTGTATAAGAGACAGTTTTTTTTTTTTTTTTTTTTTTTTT…TC
Conditions: aptamer strand: ATP DNA aptamer (quencher-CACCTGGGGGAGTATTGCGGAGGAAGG + anchor), 100 nM annealed; ATP concentration: 500 uM
measure.name: switch fluorescence ratio
Simply state the number, no unit and no words.

sequence.input	obs.value
TTACTAGATG	1.02

// lookup switch fluorescence ratio | system=ATP | key= ATTTGTGAAC;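 note: ATP exposure 15 min at 22 °C before imaging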
1.02

And AAAGGTAATT ?
1.01

And TAAGTTAGCC ?
1.05

And CCCCAGGGGT ?
2.44

And TTAGTAATTC ?
1.12

And CGGGTAAACG ?
0.964

And CGGATTTTAT ?
1.02

And CTATTAGGGT ?
0.999

====

Listed here are sequences together with their documented switch fluorescence ratio.
System: ATP;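 note: ATP exposure 15 min at 22 °C before imaging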
Experiment: switch fluorescence ratio, 500 uM ATP over buffer (Cy3 cluster intensity, sum of 5 cycles each) (fold (ratio)); higher = stronger signal-on switching upon ATP binding; sequences stand for … in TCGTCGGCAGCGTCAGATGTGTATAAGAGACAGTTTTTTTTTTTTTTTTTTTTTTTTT…TC
Conditions: aptamer strand: ATP DNA aptamer (quencher-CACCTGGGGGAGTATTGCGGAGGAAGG + anchor), 100 nM annealed; ATP concentration: 500 uM
Simply state the number, no unit and no words.

Examples with their reported switch fluorescence ratio follow.
sequence.input	test.target	obs.value
TTATAGGTTT	ATP	1
GACAAATGTG	ATP	0.998
GGTTCATGGT	ATP	0.989
CGGGTCTTGT	ATP	0.989
GAGACGTTGG	ATP	0.985
AAAATTGCAG	ATP	0.997
GTTACGGGGA	ATP	1.02
GAAGGTAGAG	ATP	0.99
TTTTATCTAA	ATP	0.988
GAGACATCGT	ATP	0.986

Which switch fluorescence ratio is listed for AGGTTGCTCT ?
0.995

And CGCTGTGGGC ?
0.988

And GAGGGTGCGG ?
1.01

And AGAAGGCGCG ?
1.01
